Test system: K-562 leukemia
Assay Comment: NCI tumour cell line growth inhibition, 48 h
For each of the compounds below, state its TGI.

Compound: CN1CCC2(CC1)C(=O)Nc1cc(NC(=O)c3ccc4c(c3)C[C@@H]3C(C)(C)[C@H](O)[C@H](F)C[C@@]3(C)O4)ccc12
Study Target: K-562 leukemia
TGI: > 100 µM

Dear colleague, could you send me TGI for each of the items below? Thanks.
1. C[C@]12CC[C@H]3[C@@H](CCC4=CC(=O)CC[C@@]43C)[C@]1(O)CC[C@]2(O)C(=O)CO
2. Cc1cc(C)c2c(c1)CSCc1cc(C)cc(C)c1-2
3. Clc1ccc2c(NCCCCNc3nc(N4CCOCC4)nc4ccccc34)ccnc2c1
4. Cc1c2ccccc2c(=O)n2c(-c3ccccn3)cccc12
5. O=C1CN=C(c2ccccc2)c2ccncc2N1

1: > 100 µM; 2: > 100 µM; 3: 11.2 µM; 4: > 100 µM; 5: > 100 µM

Please give TGI, item by item, for the list that follows.
1. c1ccc(CCCN2C3CCC2CN(CCOC(c2ccccc2)c2ccccc2)C3)cc1
2. COC(=O)C1=C(C(=O)OC)C23CC4CCC2(C(=O)C1O3)C4(C)C (stereo unspecified)
3. CCC(=O)N1C(=S)SC[C@H]1C(=O)OC
4. COc1cc(OC)c(OC)cc1/C=C/c1ccccn1
5. CCOc1ccc2c(c1)[n+]([O-])c(-c1ccccc1)c(N)[n+]2[O-]

1: 64 µM; 2: > 100 µM; 3: > 100 µM; 4: > 10 µM; 5: > 100 µM
